Target: T1, hPRLR.mmh (soluble monomeric human PRLR) (human)
T1 construct: called soluble monomeric PRLR protein
T1 chain: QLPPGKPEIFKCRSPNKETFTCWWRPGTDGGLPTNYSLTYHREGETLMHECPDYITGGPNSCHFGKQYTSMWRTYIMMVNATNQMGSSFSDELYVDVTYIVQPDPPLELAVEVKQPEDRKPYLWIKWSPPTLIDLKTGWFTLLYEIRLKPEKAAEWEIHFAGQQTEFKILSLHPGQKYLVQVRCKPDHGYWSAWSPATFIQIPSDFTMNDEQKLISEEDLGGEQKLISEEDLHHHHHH
Experiment: SPR Biacore, 25 C, mAb capture
Observation Type: Kd (nM)
Give your result in nM as a bare value.

Returns the measured Kd for the input binder. Input: H1H6781P (antibody, human IgG1, V domains shown, Human IgG1 Fc (H1H)) VH: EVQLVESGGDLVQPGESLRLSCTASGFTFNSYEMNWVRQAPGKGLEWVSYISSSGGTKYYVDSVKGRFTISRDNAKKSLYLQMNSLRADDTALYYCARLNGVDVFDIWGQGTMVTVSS VL: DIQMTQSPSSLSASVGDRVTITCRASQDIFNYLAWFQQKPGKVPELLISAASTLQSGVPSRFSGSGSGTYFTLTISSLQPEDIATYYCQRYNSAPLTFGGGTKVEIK
0.61

Continuing:
Returns the measured Kd for the input binder. Input: H1H6797P (antibody, human IgG1, V domains shown, Human IgG1 Fc (H1H)) VH: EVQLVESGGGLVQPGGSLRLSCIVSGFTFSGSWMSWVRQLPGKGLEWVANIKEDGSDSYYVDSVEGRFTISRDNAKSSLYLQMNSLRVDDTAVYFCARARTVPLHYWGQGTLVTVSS VL: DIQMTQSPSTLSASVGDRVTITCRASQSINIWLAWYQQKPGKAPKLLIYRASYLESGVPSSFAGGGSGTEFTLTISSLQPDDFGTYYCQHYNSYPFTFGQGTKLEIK
1.73
